# METHOD NOTES: Metabolic Stability Assay
# RECORDED CONDITIONS: male, Sprague-Dawley, rat, liver microsomes
Kindly supply the reported half-life at 0.5 µM values for the records listed here.
I only need the number, in min, no unit after it.

Query: Item under review: c1cncc(-c2cc(-c3cncs3)cs2)c1 [Compound 29] . Reported half-life at 0.5 µM?
Result: 27

Query: Next compound up: c1cncc(-c2csc(-c3cncs3)c2)c1 [Compound 48]
Result: 31

Query: Next compound up: Cn1cc(-c2csc(-c3cccnc3)c2)cn1 [Compound 30]
Result: 53

###

# EXPERIMENTAL TARGET: Dyrk1B (Homo sapiens)
# Construct: purchased Life Technologies PV4649 (LOT # 877059G)
# Sequence (Q9Y463 whole entry): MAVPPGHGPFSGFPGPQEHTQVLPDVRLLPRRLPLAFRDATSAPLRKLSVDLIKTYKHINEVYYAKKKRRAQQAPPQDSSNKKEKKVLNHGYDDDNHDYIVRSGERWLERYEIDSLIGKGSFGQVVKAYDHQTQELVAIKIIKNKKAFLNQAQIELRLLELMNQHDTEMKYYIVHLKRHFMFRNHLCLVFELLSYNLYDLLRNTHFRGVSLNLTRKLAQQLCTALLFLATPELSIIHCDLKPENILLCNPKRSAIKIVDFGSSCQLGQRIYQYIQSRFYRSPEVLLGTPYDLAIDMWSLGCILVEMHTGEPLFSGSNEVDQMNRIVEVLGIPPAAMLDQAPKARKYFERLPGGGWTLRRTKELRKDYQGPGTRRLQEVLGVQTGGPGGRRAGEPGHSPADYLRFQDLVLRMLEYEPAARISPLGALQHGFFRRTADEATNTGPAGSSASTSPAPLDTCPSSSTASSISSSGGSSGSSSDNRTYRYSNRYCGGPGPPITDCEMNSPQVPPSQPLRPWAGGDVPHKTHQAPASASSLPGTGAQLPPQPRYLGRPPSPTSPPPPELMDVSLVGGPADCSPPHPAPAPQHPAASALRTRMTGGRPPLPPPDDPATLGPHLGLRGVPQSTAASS
# METHOD NOTES: Dyrk1B kinase assay (32P-ATP, Woodtide)
# Assay type: biochemical
# RECORDED CONDITIONS: at 5 µM; read-out: percentage of inhibition Dyrk1B
OBSERVED PROPERTY: inhibition at 5 µM (%)
I only need the number, in %, no unit after it.

Query: Item under review: `c1cc2cc(-c3csc(-c4cnco4)c3)ccc2[nH]1` . Reported inhibition at 5 µM?
Result: 9

Query: Next molecule up: `Cn1cc(-c2csc(-c3cccnc3)c2)cn1`
Result: 100

Query: Next molecule up: `CSc1ncc(-c2csc(-c3cncnc3)c2)cn1`
Result: 20

Query: Next molecule up: `c1ccc2c(-c3csc(-c4cncnc4)c3)cncc2c1`
Result: 33

Query: Next molecule up: COc1ccc2c(c1)[nH]c1c(C)nccc12 [Harmine, harmine, reference compound]
Result: 98

Query: Next molecule up: `Clc1cncc(-c2csc(-c3cncnc3)c2)c1`
Result: 5

Query: Next molecule up: `c1cncc(-c2cc(-c3ccncc3)cs2)c1`
Result: 10

Query: Next molecule up: `c1cncc(-c2csc(-c3cncs3)c2)c1`
Result: 100

Query: Next molecule up: `c1ncc(-c2csc(-c3cnco3)c2)cn1`
Result: 40

Query: Next molecule up: `N#Cc1cncc(-c2csc(-c3cccnc3)c2)c1`
Result: 30
